In this section we review reported Uterine EPO (V. max) values for a set of compounds.
tested on: Uterine Eosinophil Peroxidase (EPO); conditions: female, Sprague Dawley, rat, in vivo, po, 1 mg/kg, 4 days

Reference set, count: 5
CCN(CC)CCOc1ccc(Cc2c(-c3ccc(OC)cc3)ccc3cc(OC)ccc23)cc1.Cl ... 41.1
CC(C)(C)C(=O)Oc1ccc(-c2ccc3cc(OC(=O)C(C)(C)C)ccc3c2Cc2ccc(OCCN3CCCCC3)cc2)cc1 ... 2.9
Oc1ccc(-c2ccc3cc(O)ccc3c2Cc2ccc(OCCN3CCOCC3)cc2)cc1 ... 39.3
CC1(C)CCN(CCOc2ccc(Cc3c(-c4ccc(O)cc4)ccc4cc(O)ccc34)cc2)C1 ... 55.2
Oc1ccc(-c2ccc3cc(O)ccc3c2Cc2ccc(OCCN3CCCC3)cc2)cc1 ... 5.4

// next entry
Entry under review: Oc1ccc2c(Cc3ccc(OCCN4CCCC4)cc3)c(-c3ccccc3)ccc2c1 . Reported Uterine EPO (V. max)?
4.8

====

In this section we review reported Uterine Weight (% increase vs. OVX) values for a set of molecules.
test system: ovariectomized (OVX) female Sprague Dawley rats; conditions: rat, in vivo, po, 0.1 mg/kg, 4 days
Provide the reading as a plain figure in %.

Reference set, count: 3
COc1ccc(-c2ccc3ccccc3c2Cc2ccc(OCCN3CCCCC3)cc2)cc1.Cl [Example 15] ... 41.6
Oc1ccc2c(Cc3ccc(OCCN4CCCCC4)cc3)c(-c3ccccc3)ccc2c1 [Example 11] ... 48.1
Oc1ccc2c(Cc3ccc(OCCN4CCCC4)cc3)c(-c3ccccc3)ccc2c1 [Example 12] ... 26.3

// next entry
Under ovariectomized (OVX) female Sprague Dawley rats: Uterine Weight (% increase vs. OVX) value of Cl.Oc1ccc(-c2ccc3cc(O)ccc3c2Cc2ccc(OCCN3CCCCC3)cc2)cc1 [Example 2] ?
24.6

====

System: ovariectomized (OVX) female Sprague Dawley rats
Conditions: rat, in vivo, po, 1 mg/kg, 4 days
Procedure: In the examples illustrating the methods, a post-menopausal model was used in which effects of different treatments upon circulating lipids were determined. Seventy-five day old female Sprague Dawley rats (weight range of 200 to 225 g) were obtained from Charles River Laboratories (Portage, Mich.). […] Dosing Regimen Tissue Collection. […] The animals were then sacrificed by asphyxiation with CO2, the uterus was removed through a midline incision, and a wet uterine weight was determined. […]
Lab note: cut-off is 20%. Strictly less in Uterine Weight (% increase vs. OVX) is TRUE. Exactly 20% or more is FALSE.

For orientation, consider the following solved cases.
Oc1ccc2c(Cc3ccc(OCCN4CCCC4)cc3)c(-c3ccccc3)ccc2c1 [Example 12] ... TRUE
COc1ccc(-c2ccc3ccccc3c2Cc2ccc(OCCN3CCCCC3)cc2)cc1.Cl [Example 15] ... FALSE
CCN(CC)CCOc1ccc(Cc2c(-c3ccc(OC)cc3)ccc3cc(OC)ccc23)cc1.Cl [Example 22] ... FALSE
CC1(C)CCN(CCOc2ccc(Cc3c(-c4ccc(O)cc4)ccc4cc(O)ccc34)cc2)C1 [Example 33] ... FALSE
CCCCS(=O)(=O)Oc1ccc(-c2ccc3cc(OS(=O)(=O)CCCC)ccc3c2Cc2ccc(OCCN3CCCCC3)cc2)cc1 [Example 5] ... TRUE
CC(C)(C)C(=O)Oc1ccc(-c2ccc3cc(OC(=O)C(C)(C)C)ccc3c2Cc2ccc(OCCN3CCCCC3)cc2)cc1 [Example 4] ... FALSE
Oc1ccc(-c2ccc3cc(O)ccc3c2Cc2ccc(OCCN3CCOCC3)cc2)cc1 [Example 32] ... FALSE

Now for a further molecule.
Hi there! Is Uterine Weight (% increase vs. OVX) for Oc1ccc2c(Cc3ccc(OCCN4CCCCC4)cc3)c(-c3ccccc3)ccc2c1 [Example 11] below 20%, do you know?
FALSE

====

test system: Uterine Eosinophil Peroxidase (EPO); conditions: female, Sprague Dawley, rat, in vivo, po, 0.1 mg/kg, 4 days
quantityName: Uterine EPO (V. max)
Please state the value as a number alone, without comment.

Cl.Oc1ccc(-c2ccc3cc(O)ccc3c2Cc2ccc(OCCN3CCCCC3)cc2)cc1 ... 4.5
CCCCS(=O)(=O)Oc1ccc(-c2ccc3cc(OS(=O)(=O)CCCC)ccc3c2Cc2ccc(OCCN3CCCCC3)cc2)cc1 ... 3.4
CCN(CC)CCOc1ccc(Cc2c(-c3ccc(OC)cc3)ccc3cc(OC)ccc23)cc1.Cl ... 45.0
Oc1ccc(-c2ccc3cc(O)ccc3c2Cc2ccc(OCCN3CCOCC3)cc2)cc1 ... 9.3
CC(C)(C)C(=O)Oc1ccc(-c2ccc3cc(OC(=O)C(C)(C)C)ccc3c2Cc2ccc(OCCN3CCCCC3)cc2)cc1 ... 3.6

Entry under review: Oc1ccc2c(Cc3ccc(OCCN4CCCCC4)cc3)c(-c3ccccc3)ccc2c1 . Reported Uterine EPO (V. max)?
4.8

Entry under review: COc1ccc(-c2ccc3ccccc3c2Cc2ccc(OCCN3CCCCC3)cc2)cc1.Cl . Reported Uterine EPO (V. max)?
7.0

Entry under review: Oc1ccc2c(Cc3ccc(OCCN4CCCC4)cc3)c(-c3ccccc3)ccc2c1 . Reported Uterine EPO (V. max)?
12.0

====

tested on: ovariectomized (OVX) female Sprague Dawley rats; conditions: rat, in vivo, po, 10 mg/kg, 4 days
Please use criterion met whenever Uterine Weight (% increase vs. OVX) is not below 10%, and criterion not met whenever it is.

For orientation, consider the following solved cases.
COc1ccc(-c2ccc3cc(OC)ccc3c2Cc2ccc(OCCN3CCCCC3)cc2)cc1.Cl [Example 1] ... criterion met
COc1ccc(-c2ccc3ccccc3c2Cc2ccc(OCCN3CCCCC3)cc2)cc1.Cl [Example 15] ... criterion met
Oc1ccc2c(Cc3ccc(OCCN4CCCCC4)cc3)c(-c3ccccc3)ccc2c1 [Example 11] ... criterion met
Oc1ccc(-c2ccc3cc(O)ccc3c2Cc2ccc(OCCN3CCCC3)cc2)cc1 [Example 19] ... criterion not met

Please check the record Oc1ccc(-c2ccc3cc(O)ccc3c2Cc2ccc(OCCN3CCOCC3)cc2)cc1 [Example 32] and state if its Uterine Weight (% increase vs. OVX) is at or above 10%.
criterion met

====

system: Uterine Eosinophil Peroxidase (EPO); conditions: female, Sprague Dawley, rat, in vivo, po, 0.01 mg/kg, 4 days
quantityName: Uterine EPO (V. max)
Please state the value as a number alone, without comment.

Entry under review: COc1ccc(-c2ccc3ccccc3c2Cc2ccc(OCCN3CCCCC3)cc2)cc1.Cl . Reported Uterine EPO (V. max)?
4.6

Entry under review: Cl.Oc1ccc(-c2ccc3cc(O)ccc3c2Cc2ccc(OCCN3CCCCC3)cc2)cc1 . Reported Uterine EPO (V. max)?
4.5

Entry under review: COc1ccc(-c2ccc3cc(OC)ccc3c2Cc2ccc(OCCN3CCCCC3)cc2)cc1.Cl . Reported Uterine EPO (V. max)?
4.2

Entry under review: O=C(Oc1ccc(-c2ccc3cc(OC(=O)c4ccccc4)ccc3c2Cc2ccc(OCCN3CCCCC3)cc2)cc1)c1ccccc1 . Reported Uterine EPO (V. max)?
5.4

====

tested on: ovariectomized (OVX) female Sprague Dawley rats; conditions: rat, in vivo, po, 10 mg/kg, 4 days
In this section we review reported Uterine Weight (% increase vs. OVX) values for a set of compounds.

Reference set, count: 3
O=C(Oc1ccc(-c2ccc3cc(OC(=O)c4ccccc4)ccc3c2Cc2ccc(OCCN3CCCCC3)cc2)cc1)c1ccccc1 ... 4.5%
Oc1ccc2c(Cc3ccc(OCCN4CCCC4)cc3)c(-c3ccccc3)ccc2c1 ... 25.1%
CCN(CC)CCOc1ccc(Cc2c(-c3ccc(OC)cc3)ccc3cc(OC)ccc23)cc1.Cl ... 89.3%

Entry under review: CC(C)(C)C(=O)Oc1ccc(-c2ccc3cc(OC(=O)C(C)(C)C)ccc3c2Cc2ccc(OCCN3CCCCC3)cc2)cc1 . Reported Uterine Weight (% increase vs. OVX)?
75.2%

Entry under review: Cl.Oc1ccc(-c2ccc3cc(O)ccc3c2Cc2ccc(OCCN3CCCCC3)cc2)cc1 . Reported Uterine Weight (% increase vs. OVX)?
2.6%

Entry under review: CCCCS(=O)(=O)Oc1ccc(-c2ccc3cc(OS(=O)(=O)CCCC)ccc3c2Cc2ccc(OCCN3CCCCC3)cc2)cc1 . Reported Uterine Weight (% increase vs. OVX)?
25.3%

Entry under review: CC1(C)CCN(CCOc2ccc(Cc3c(-c4ccc(O)cc4)ccc4cc(O)ccc34)cc2)C1 . Reported Uterine Weight (% increase vs. OVX)?
63.0%

====

tested on: ovariectomized (OVX) female Sprague Dawley rats; details: rat, in vivo, po, 1 mg/kg, 4 days
quantityName: Uterine Weight (% increase vs. OVX) (%)
Provide the reading as a plain figure in %.

Reference set, count: 2
COc1ccc(-c2ccc3cc(OC)ccc3c2Cc2ccc(OCCN3CCCCC3)cc2)cc1.Cl ... 29.7
Oc1ccc(-c2ccc3cc(O)ccc3c2Cc2ccc(OCCN3CCCC3)cc2)cc1 ... 1.0

Entry under review: Cl.Oc1ccc(-c2ccc3cc(O)ccc3c2Cc2ccc(OCCN3CCCCC3)cc2)cc1 . Reported Uterine Weight (% increase vs. OVX)?
4.1

Entry under review: O=C(Oc1ccc(-c2ccc3cc(OC(=O)c4ccccc4)ccc3c2Cc2ccc(OCCN3CCCCC3)cc2)cc1)c1ccccc1 . Reported Uterine Weight (% increase vs. OVX)?
0.0
